- run_description: The drug is tested on Odoribacter splanchnicus strain: fecal isolate for biotransformation. The drug concentrations were measured before and after a 12-h incubation by liquid-chromatography-coupled mass spectrometry (LC–MS)
- test_parameters: 2 µM
property_measured: Bacterial Biotransformation

CC(C)(C)NC(=O)[C@H]1CC[C@H]2[C@@H]3CC[C@H]4NC(=O)C=C[C@]4(C)[C@H]3CC[C@]12C [FINASTERIDE] | Compound metabolized
O=C(O)CCc1nc(-c2ccccc2)c(-c2ccccc2)o1 | Compound metabolized
CC(C)NCC(O)COc1ccc(COCCOC(C)C)cc1.CC(C)NCC(O)COc1ccc(COCCOC(C)C)cc1.O=C(O)/C=C/C(=O)O (stereo not drawn) [BISOPROLOL FUMARATE] | Compound NOT metabolized
CC(C)(C)NCC(O)COc1cccc2c1CC(O)C(O)C2 (stereo not drawn) | Compound NOT metabolized
O=C1N=C([O-])NC1(c1ccccc1)c1ccccc1.[Na+] [PHENYTOIN SODIUM] | Compound metabolized
Cc1cc2c(s1)Nc1ccccc1N=C2N1CCN(C)CC1 | Compound metabolized
NC(CO)(CO)CO.O=C(c1ccccc1)c1ccc2n1CCC2C(=O)O (stereo not drawn) | Compound NOT metabolized
CC(C)[C@H]1CC[C@H](C(=O)N[C@H](Cc2ccccc2)C(=O)O)CC1 [NATEGLINIDE] | Compound metabolized
Cc1cc(C)cc(OCC2CNC(=O)O2)c1 (stereo not drawn) | Compound NOT metabolized
CCOC(=O)[C@H](CCc1ccccc1)N[C@@H](C)C(=O)N1[C@H](C(=O)O)C[C@H]2CCCC[C@@H]21 | Compound metabolized
CC1Cc2ccccc2N1NC(=O)c1ccc(Cl)c(S(N)(=O)=O)c1 (stereo not drawn) [INDAPAMIDE] | Compound NOT metabolized
CCCCc1nc(Cl)c(CO)n1Cc1ccc(-c2ccccc2-c2nn[nH]n2)cc1 | Compound metabolized
O=C(O)CCC(=O)O.O=C(O[C@H]1CN2CCC1CC2)N1CCc2ccccc2[C@@H]1c1ccccc1 [SOLIFENACIN SUCCINATE] | Compound NOT metabolized
Cc1ccccc1C(OCCN(C)C)c1ccccc1.O=C(O)CC(O)(CC(=O)O)C(=O)O (stereo not drawn) [ORPHENADRINE CITRATE] | Compound NOT metabolized
CN(C)CCC=C1c2ccccc2COc2ccccc21 [DOXEPIN] | Compound NOT metabolized
CN1C(=O)CC(C)(c2ccccc2)C1=O (stereo not drawn) [METHSUXIMIDE] | Compound NOT metabolized
CC#C[C@]1(O)CC[C@H]2[C@@H]3CCC4=CC(=O)CCC4=C3[C@@H](c3ccc(N(C)C)cc3)C[C@@]21C | Compound NOT metabolized
CC(C)NCC(O)COc1ccc(CCOCC2CC2)cc1 (stereo not drawn) | Compound NOT metabolized

* * *

- run_description: The drug is tested on Ruminococcus lactaris strain: ATCC29176 for biotransformation. The drug concentrations were measured before and after a 12-h incubation by liquid-chromatography-coupled mass spectrometry (LC–MS)
- test_parameters: 2 µM
property_measured: Bacterial Biotransformation

N#Cc1ccc2[nH]cc(CCCCN3CCN(c4ccc5oc(C(N)=O)cc5c4)CC3)c2c1 [VILAZODONE] | Compound NOT metabolized
CN(C)C(=O)Oc1cccc([N+](C)(C)C)c1.[Br-] [NEOSTIGMINE BROMIDE] | Compound NOT metabolized
CCOc1cc(CC(=O)N[C@@H](CC(C)C)c2ccccc2N2CCCCC2)ccc1C(=O)O [REPAGLINIDE] | Compound NOT metabolized

* * *

- test_parameters: roseburia intestinalis, 12 h, 2 µM
- Description: The drug is tested on Roseburia intestinalis strain: L1-82 for biotransformation. The drug concentrations were measured before and after a 12-h incubation by liquid-chromatography-coupled mass spectrometry (LC–MS)
property_measured: Bacterial Biotransformation

CCN(CC)CCOC(=O)C(Cc1cccc2ccccc12)CC1CCCO1.O=C(O)C(=O)O (stereo not drawn) [NAFRONYL OXALATE] | Compound NOT metabolized
COc1c2occc2cc2ccc(=O)oc12 | Compound metabolized
CC(C)NCC(O)COc1ccc(CC(N)=O)cc1 (stereo not drawn) | Compound NOT metabolized
Cc1ccc(-c2nc3ccc(C)cn3c2CC(=O)N(C)C)cc1 | Compound NOT metabolized
NC(=O)N1c2ccccc2CC(=O)c2ccccc21 [OXCARBAZEPINE] | Compound metabolized
C=CCN1CC[C@]23c4c5ccc(O)c4O[C@H]2C(=O)CC[C@@]3(O)[C@H]1C5 | Compound metabolized
CCN(CC)CC#CCOC(=O)C(O)(c1ccccc1)C1CCCCC1.Cl (stereo not drawn) [OXYBUTYNIN CHLORIDE] | Compound NOT metabolized
CC(=O)O[C@H]1C(=O)[C@@]2(C)[C@H]([C@H](OC(=O)c3ccccc3)[C@]3(O)C[C@H](OC(=O)[C@H](O)[C@@H](NC(=O)c4ccccc4)c4ccccc4)C(C)=C1C3(C)C)[C@]1(OC(C)=O)CO[C@@H]1C[C@@H]2O | Compound NOT metabolized
CN1CCC(=C2c3ccccc3CC(=O)c3sccc32)CC1.O=C(O)/C=C/C(=O)O [KETOTIFEN FUMARATE] | Compound NOT metabolized
C#C[C@]1(OC(C)=O)CC[C@H]2[C@@H]3CCC4=C/C(=N/O)CC[C@@H]4[C@H]3CC[C@@]21CC [NORGESTIMATE] | Compound NOT metabolized
O=P(O)(O)O.c1ccc(CN(CC2=NCCN2)c2ccccc2)cc1 [ANTAZOLINE PHOSPHATE] | Compound NOT metabolized
O=C(O)CCC(=O)O.O=C(O[C@H]1CN2CCC1CC2)N1CCc2ccccc2[C@@H]1c1ccccc1 [SOLIFENACIN SUCCINATE] | Compound NOT metabolized
O=c1[nH]c2ccccc2n1CCCN1CCC(n2c(=O)[nH]c3cc(Cl)ccc32)CC1 | Compound NOT metabolized
CCN(CC)CCNC(=O)c1cc(S(C)(=O)=O)ccc1OC [TIAPRIDE] | Compound NOT metabolized
CN/C(=N/CCSCc1nc[nH]c1C)NC#N | Compound NOT metabolized
Nc1c2c(nc3ccccc13)CCCC2 | Compound NOT metabolized
N[C@@H](Cc1ccc(N(CCCl)CCCl)cc1)C(=O)O | Compound metabolized
CC(=O)OCC(=O)NCCCOc1cccc(CN2CCCCC2)c1 [ROXATIDINE ACETATE] | Compound metabolized
CNNCc1ccc(C(=O)NC(C)C)cc1 | Compound NOT metabolized
C=CC[C@@H]1/C=C(\C)C[C@H](C)C[C@H](OC)[C@H]2O[C@@](O)(C(=O)C(=O)N3CCCC[C@H]3C(=O)O[C@H](/C(C)=C/[C@@H]3CC[C@@H](O)[C@H](OC)C3)[C@H](C)[C@@H](O)CC1=O)[C@H](C)C[C@@H]2OC.O | Compound metabolized
Cc1nc2n(c(=O)c1CCN1CCC(c3noc4cc(F)ccc34)CC1)CCCC2O (stereo not drawn) | Compound metabolized
NC12CC3CC(CC(C3)C1)C2 | Compound NOT metabolized
c1ccc2[nH]c(-c3cscn3)nc2c1 | Compound NOT metabolized
Br.CN(C)CCCC1(c2ccc(F)cc2)OCc2cc(C#N)ccc21 (stereo not drawn) [CITALOPRAM HYDROBROMIDE] | Compound NOT metabolized
CC(C)c1c(CN(C)C(C)Cc2ccccc2)n(C)n(-c2ccccc2)c1=O (stereo not drawn) | Compound NOT metabolized
COc1ccnc(C[S+]([O-])c2nc3ccc(OC(F)F)cc3[nH]2)c1OC (stereo not drawn) | Compound metabolized
CC(C)(C)NCC(O)c1cc(Cl)c(N)c(Cl)c1 (stereo not drawn) | Compound NOT metabolized
CCC(C)n1ncn(-c2ccc(N3CCN(c4ccc(OCC5COC(Cn6cncn6)(c6ccc(Cl)cc6Cl)O5)cc4)CC3)cc2)c1=O (stereo not drawn) | Compound NOT metabolized
CN1CC(=O)N2[C@H](c3ccc4c(c3)OCO4)c3[nH]c4ccccc4c3C[C@@H]2C1=O | Compound NOT metabolized
COc1ccc2c(c1)c(CC(=O)O)c(C)n2C(=O)c1ccc(Cl)cc1 | Compound metabolized
COCCc1ccc(OCC(O)CNC(C)C)cc1.COCCc1ccc(OCC(O)CNC(C)C)cc1.O=C(O)C(O)C(O)C(=O)O (stereo not drawn) [METOPROLOL TARTRATE] | Compound NOT metabolized
OCCN1CCN(CCCN2c3ccccc3Sc3ccc(C(F)(F)F)cc32)CC1 | Compound metabolized
CC(=O)OCC(=O)[C@@]1(O)[C@@H](C)C[C@H]2[C@@H]3CCC4=CC(=O)C=C[C@]4(C)[C@@]3(F)[C@@H](O)C[C@@]21C [BETAMETHASONE ACETATE] | Compound NOT metabolized

* * *

- run_description: The drug is tested on Providencia rettgeri strain: DSM1131 for biotransformation. The drug concentrations were measured before and after a 12-h incubation by liquid-chromatography-coupled mass spectrometry (LC–MS)
- Format: ADME
- Design: dose 2 uM, timepoint 0 vs 12 hours
- test_parameters: 2 µM
property_measured: Bacterial Biotransformation

Cc1ccc(-c2nc3ccc(C)cn3c2CC(=O)N(C)C)cc1 [ZOLPIDEM] | Compound NOT metabolized
COc1cc2nc(N3CCN(C(=O)c4ccco4)CC3)nc(N)c2cc1OC [PRAZOSIN] | Compound NOT metabolized
Clc1ccc(Cn2c(CN3CCCC3)nc3ccccc32)cc1 [CLEMIZOLE] | Compound NOT metabolized
CC(Oc1c(Cl)cccc1Cl)C1=NCCN1 (stereo not given) [LOFEXIDINE] | Compound metabolized
COc1ccc(C(CN(C)C)C2(O)CCCCC2)cc1 (stereo not given) [VENLAFAXINE] | Compound NOT metabolized
O=C(NC(Cc1cc(=O)[nH]c2ccccc12)C(=O)O)c1ccc(Cl)cc1 (stereo not given) [REBAMIPIDE] | Compound NOT metabolized
CNCCC(Oc1ccc(C(F)(F)F)cc1)c1ccccc1 (stereo not given) [FLUOXETINE] | Compound NOT metabolized
CCOc1ccc2nc(S(N)(=O)=O)sc2c1 [ETHOXZOLAMIDE] | Compound metabolized
c1ccc2[nH]c(-c3cscn3)nc2c1 [THIABENDAZOLE] | Compound NOT metabolized
CN1CCc2c(c3ccccc3n2Cc2ccccc2)C1.CN1CCc2c(c3ccccc3n2Cc2ccccc2)C1.O=S(=O)(O)c1cccc2c(S(=O)(=O)O)cccc12 | Compound NOT metabolized
